ASSAY_DETAILS: Selectivity index, ratio of antiproliferative IC50 for African green monkey Vero cells to antiproliferative IC50 for human Hep2 cells
Assay type: toxicity
PARTICULARS: Vero cells versus Hep2 cells, read-out: Ratio IC50
Attribute: selectivity ratio
Lab note: record the figure alone, no unit after it.

The compound listed as CC(=O)O[C@@]12CO[C@@H]1C[C@H](O)[C@@]1(C)C(=O)[C@H](O)C3=C(C)[C@@H](OC(=O)[C@H](O)[C@@H](NC(=O)OC(C)(C)C)c4ccccc4)C[C@@](O)([C@@H](OC(=O)c4ccccc4)[C@H]21)C3(C)C [DOCETAXEL ANHYDROUS] has a reported selectivity ratio of 2.2

What the record says about C=C(C)[C@@H]1CC[C@]2(C(=O)O)CC[C@]3(C)[C@H](CC[C@@H]4[C@@]5(C)CC[C@@H](O)[C@](C)(CO)[C@@H]5CC[C@]43C)[C@@H]12 : selectivity ratio is 1.3

###

ASSAY_DETAILS: Selectivity index, ratio of cytotoxic CC50 for African green monkey Vero cells to cytotoxic CC50 for human SiHa cells
Assay type: toxicity
PARTICULARS: Vero cells versus SiHa cells, read-out: Selectivity Index
Below, each entry is listed with its recorded selectivity ratio.

• CC(=O)O[C@@]12CO[C@@H]1C[C@H](O)[C@@]1(C)C(=O)[C@H](O)C3=C(C)[C@@H](OC(=O)[C@H](O)[C@@H](NC(=O)OC(C)(C)C)c4ccccc4)C[C@@](O)([C@@H](OC(=O)c4ccccc4)[C@H]21)C3(C)C [DOCETAXEL ANHYDROUS] = 5.9

Note to self: selectivity ratio recorded for C=C(C)[C@@H]1CC[C@]2(C(=O)O)CC[C@]3(C)[C@H](CC[C@@H]4[C@@]5(C)CC[C@@H](O)C(C)(C)[C@@H]5CC[C@]43C)[C@@H]12 [EPIBETULINIC ACID] was 0.9

Reported selectivity ratio for C=C(C)[C@@H]1CC[C@]2(C(=O)O)CC[C@]3(C)[C@H](CC[C@@H]4[C@@]5(C)CC[C@H](O)C(C)(C)[C@@H]5CC[C@]43C)[C@@H]12 was 13

The measured selectivity ratio associated with C=C(C)[C@@H]1CC[C@]2(C(=O)O)CC[C@]3(C)[C@H](CC[C@@H]4[C@@]5(C)CC[C@@H](O)[C@](C)(CO)[C@@H]5CC[C@]43C)[C@@H]12 reads 4.7

###

ASSAY_DETAILS: Selectivity index, ratio of antiproliferative IC50 for HEK293 cells to antiproliferative IC50 for human KB cells
Assay type: toxicity
PARTICULARS: HEK293 cells versus KB cells, read-out: Ratio IC50
RECORDED_ENDPOINT: selectivity ratio
Write the number on its own, no unit after it.

* CC(=O)O[C@@]12CO[C@@H]1C[C@H](O)[C@@]1(C)C(=O)[C@H](O)C3=C(C)[C@@H](OC(=O)[C@H](O)[C@@H](NC(=O)OC(C)(C)C)c4ccccc4)C[C@@](O)([C@@H](OC(=O)c4ccccc4)[C@H]21)C3(C)C [DOCETAXEL ANHYDROUS] | 2.2

The recorded selectivity ratio for C=C(C)[C@@H]1CC[C@]2(C(=O)O)CC[C@]3(C)[C@H](CC[C@@H]4[C@@]5(C)CC[C@H](O)C(C)(C)[C@@H]5CC[C@]43C)[C@@H]12 is 12
